Where do these numbers come from? They come from patent US20250027068.

Each item that follows carries a reported Enzyme activity endpoint: Fab′2.
assay-target: pooled human IgG (human IgG1,2,3 and 4)
Your answer is read as ng/µL, so omit the unit and give the number.

Input: Request the reported Enzyme activity endpoint: Fab′2 associated with PRT-628 (protein) MQITSVWTKGVTPLTPEQFRYNNEDVIHAPYLAHQGWYDITKAFDGKDNLLCGAATAGNMLHWWFDQNKEEIEAYLKKHPEKQKIIFNNQELFDLKAAIDTKDSQTNSQLFNYFRDKAFPNLSARQLGVMPDLVLDMFINGYYLNVFKTQSTDVNRPYQDKDKRGGIFDAVFTRGDQTTLLTARHDLKNKGLNDISTIIKQELTEGRALALSHTYANVSISHVINLWGADFNAEGNLEAIYVTDSDANASIGMKKYFVGINAHGHVAISAKKIEGENIGAQVLGLFTLSSGQDIWQQLSLEHHHHHH
Output: 852

Input: Request the reported Enzyme activity endpoint: Fab′2 associated with PRT-604 (protein) MQITSVWTKGVTPLTPEQFRYNNEDVIHAPYLAHQGWYDITKAFDGKDNLLCGAATAGNMLHWWFDQNKTEIEAYLSKHPEKQKIIFNNQELFDLKAAIDTKDSQTNSQLFNYFRDKAFPNLSARQLGVMPDLVLDMFINGYYLNVFKTQSTDVNRPYQDKDKRGGIFDDVFGKGDQTTLLTARHDLKNKGLNDISTIIKQELTEGRALALSHTYANVSISHVINLWGADFNAEGNLEAIYVTDSDANASIGMKKYFVGINAHGHVAISAKKIEGENIGAQVLGLFTLSSGKDIWQKLSLEHHHHHH
Output: 51
